Known pEC50 of a selection of binders
# system: T1, human CD228 (R&D Systems Custom02; Lot DCWR021505A) (human, UniProt P08582 20-709, limits assumed)
# T1 construct: Bought custom protein coated on ELISA plates; also called CD228 protein; melanotransferrin
# T1 sequence (looked up): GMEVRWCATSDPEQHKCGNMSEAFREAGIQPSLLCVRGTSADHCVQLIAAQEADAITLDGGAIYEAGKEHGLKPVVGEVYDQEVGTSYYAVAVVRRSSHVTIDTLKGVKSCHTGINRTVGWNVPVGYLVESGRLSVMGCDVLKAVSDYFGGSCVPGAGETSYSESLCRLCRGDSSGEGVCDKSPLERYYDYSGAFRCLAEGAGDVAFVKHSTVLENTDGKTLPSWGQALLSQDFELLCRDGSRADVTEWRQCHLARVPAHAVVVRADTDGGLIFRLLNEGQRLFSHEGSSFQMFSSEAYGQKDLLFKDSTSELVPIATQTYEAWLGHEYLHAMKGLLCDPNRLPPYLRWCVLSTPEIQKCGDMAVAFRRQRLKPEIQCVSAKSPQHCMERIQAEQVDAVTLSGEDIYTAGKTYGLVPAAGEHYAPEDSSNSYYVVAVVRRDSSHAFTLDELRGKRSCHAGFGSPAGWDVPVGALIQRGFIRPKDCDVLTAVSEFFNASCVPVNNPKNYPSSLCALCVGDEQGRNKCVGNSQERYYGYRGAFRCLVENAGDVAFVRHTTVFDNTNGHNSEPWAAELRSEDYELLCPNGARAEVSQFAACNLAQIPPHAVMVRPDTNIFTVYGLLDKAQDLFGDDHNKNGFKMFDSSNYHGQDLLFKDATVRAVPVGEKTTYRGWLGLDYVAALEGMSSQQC
# runDescription: ELISA on CD228 protein, neutral pH (rounded form of Table 2, pH 7.40)
pEC50: −log10 of the molar value.

| binder | pEC50 |
| --- | --- |
| hL49_34_Gln (antibody, V domains shown, hL49 variant with the light chain CDR-L1 histidine 34 changed to glutamine) VH: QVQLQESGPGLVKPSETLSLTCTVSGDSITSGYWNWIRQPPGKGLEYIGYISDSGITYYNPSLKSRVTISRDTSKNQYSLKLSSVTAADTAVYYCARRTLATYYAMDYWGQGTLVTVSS VL: DFVMTQSPLSLPVTLGQPASISCRASQSLVHSDGNTYLQWYQQRPGQSPRLLIYRVSNRFSGVPDRFSGSGSGTDFTLKISRVEAEDVGVYYCSQSTHVPPTFGQGTKLEIK | 8.77 |
| hL49_3X_Ala (antibody, V domains shown, hL49 triple mutant: all three light chain CDR histidines (two in CDR-L1, one in CDR-L3) changed to alanine) VH: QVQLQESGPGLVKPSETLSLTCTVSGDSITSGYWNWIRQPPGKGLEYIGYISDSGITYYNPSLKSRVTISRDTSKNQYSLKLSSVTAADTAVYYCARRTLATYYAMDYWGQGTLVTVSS VL: DFVMTQSPLSLPVTLGQPASISCRASQSLVASDGNTYLAWYQQRPGQSPRLLIYRVSNRFSGVPDRFSGSGSGTDFTLKISRVEAEDVGVYYCSQSTAVPPTFGQGTKLEIK | 8.35 |
| hL49_3X_Tyr (antibody, V domains shown, hL49 triple mutant: all three light chain CDR histidines changed to tyrosine) VH: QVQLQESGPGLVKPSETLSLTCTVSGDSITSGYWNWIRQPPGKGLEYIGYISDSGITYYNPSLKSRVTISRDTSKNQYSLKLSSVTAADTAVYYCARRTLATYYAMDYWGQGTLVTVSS VL: DFVMTQSPLSLPVTLGQPASISCRASQSLVYSDGNTYLYWYQQRPGQSPRLLIYRVSNRFSGVPDRFSGSGSGTDFTLKISRVEAEDVGVYYCSQSTYVPPTFGQGTKLEIK | 8.27 |
